The measurements presented in this section are drawn from the supplement of paper PMC10567573.

B1: ZNF8 (parent)
chain: RIHTGERPYMCKECGKAFSQNSSL

# Variants of: B1
# Assay method text: protein stability index of a GFP-peptide fusion (GPS, HEK-293T) (PSI 1-6); higher = more stable;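 also: lentivirally expressed fusions sorted by FACS into six bins by GFP to DsRed ratio, PSI derived from sequencing read proportions per bin multiplied by bin number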
# Experimental setup: c terminus: a fixed tail appended
Measurement label: protein stability index
API doc: respond with a numeric literal and nothing else, no unit.

Determine from records and report protein stability index for E6A 1.91

Determine from records and report protein stability index for E6P 2.34

More entries:
Determine from records and report protein stability index for S23F 1.77

Determine from records and report protein stability index for T4V 2.59

Determine from records and report protein stability index for C11M 2.82

Determine from records and report protein stability index for G5I 1.83

Determine from records and report protein stability index for I2L 2.35

Determine from records and report protein stability index for S19R 1.91

Determine from records and report protein stability index for A17V 3.24

Determine from records and report protein stability index for S23G 2.3

Determine from records and report protein stability index for S19V 2

Determine from records and report protein stability index for M10C 3.11

Determine from records and report protein stability index for S23A 2.26

Determine from records and report protein stability index for M10W 2.3
